Target: hSERT Y95F (Homo sapiens, UniProt P31645, Y95F)
Sequence (P31645 whole entry Y95F): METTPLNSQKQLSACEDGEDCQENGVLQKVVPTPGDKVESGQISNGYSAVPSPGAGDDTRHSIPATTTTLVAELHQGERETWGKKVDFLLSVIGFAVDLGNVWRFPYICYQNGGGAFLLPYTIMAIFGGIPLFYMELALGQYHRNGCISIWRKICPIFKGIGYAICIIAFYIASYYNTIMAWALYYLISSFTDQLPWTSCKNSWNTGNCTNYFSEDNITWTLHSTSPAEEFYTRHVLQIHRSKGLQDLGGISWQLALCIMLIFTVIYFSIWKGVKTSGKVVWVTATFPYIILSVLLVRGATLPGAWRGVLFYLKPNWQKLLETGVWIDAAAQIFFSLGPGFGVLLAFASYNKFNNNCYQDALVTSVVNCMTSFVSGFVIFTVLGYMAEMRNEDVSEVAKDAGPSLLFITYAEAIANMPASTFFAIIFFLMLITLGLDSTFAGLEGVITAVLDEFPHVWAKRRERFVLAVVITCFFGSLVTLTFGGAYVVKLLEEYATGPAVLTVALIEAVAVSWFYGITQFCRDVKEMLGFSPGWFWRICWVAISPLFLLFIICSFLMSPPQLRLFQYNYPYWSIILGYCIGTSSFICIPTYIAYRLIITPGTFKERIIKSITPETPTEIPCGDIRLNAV
Settings: read-out: IC50 for inhibition of [3H]DA uptake
pIC50: −log10 of the molar value.
measurement.name: pIC50

>>> print(df.to_string())
                                   compound  obs_value
0  CNC(C)Cc1ccc2c(c1)OCO2 (stereo not shown) [MDMA, 3,4-methylenedioxymethamphetamine]       6.03

----------
Molecular target: hSERT WT (Homo sapiens, UniProt P31645)
Sequence (P31645 whole entry): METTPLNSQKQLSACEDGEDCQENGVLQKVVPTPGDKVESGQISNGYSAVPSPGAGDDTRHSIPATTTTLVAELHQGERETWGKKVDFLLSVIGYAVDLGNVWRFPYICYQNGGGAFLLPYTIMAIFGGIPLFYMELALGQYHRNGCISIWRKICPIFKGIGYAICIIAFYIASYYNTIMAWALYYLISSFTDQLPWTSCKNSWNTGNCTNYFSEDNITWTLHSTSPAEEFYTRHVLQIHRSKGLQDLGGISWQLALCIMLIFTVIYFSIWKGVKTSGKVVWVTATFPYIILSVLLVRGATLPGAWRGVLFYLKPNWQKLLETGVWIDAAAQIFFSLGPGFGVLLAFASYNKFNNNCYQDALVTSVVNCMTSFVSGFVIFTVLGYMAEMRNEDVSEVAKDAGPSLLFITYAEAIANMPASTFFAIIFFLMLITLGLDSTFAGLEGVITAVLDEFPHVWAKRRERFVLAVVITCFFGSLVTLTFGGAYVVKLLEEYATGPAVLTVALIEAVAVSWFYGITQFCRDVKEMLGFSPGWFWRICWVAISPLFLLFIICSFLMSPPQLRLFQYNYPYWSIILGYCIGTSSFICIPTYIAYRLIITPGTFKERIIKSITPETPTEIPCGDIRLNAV
Conditions: read-out: IC50 for inhibition of [3H]DA uptake
pIC50: −log10 of the molar value.
measurement.name: pIC50

                                   molecule  obs_value
0  CNC(C)Cc1ccc2c(c1)OCO2 (stereo not shown)       5.57

src = paper PMC3107525
